assay: Inhibition of Voltage-dependent N-type calcium channel in human IMR32 cells by FLIPR based Ca(2+) flux assay; assay type: cell-based, IMR-32; details: Homo sapiens, IMR-32; read-out: IC50
pIC50: −log10 of the molar value.
pIC50 of 6 or higher: 1. Under 6: 0.

molecule="CCC(CC)C(=O)N[C@H]1CC[C@H]2CN(Cc3cccc(C(F)(F)F)c3)C[C@H]21 (racemic)" classification=0
molecule="O=C(N[C@H]1CC[C@H]2CN(Cc3cccc(C(F)(F)F)c3)C[C@H]21)C1CCCC1 (relative stereo)" classification=0
molecule="O=C(N[C@H]1CC[C@H]2CN(Cc3cccc(C(F)(F)F)c3)C[C@H]21)C1CCCCCC1 (racemic)" classification=1
molecule="O=C(N[C@H]1CC[C@H]2CN(Cc3ccccc3)C[C@H]21)C1(c2ccccc2)CCCC1 (racemic)" classification=0
molecule="O=C(N[C@H]1CC[C@H]2CN(Cc3cccc(C(F)(F)F)c3)C[C@H]21)C(c1ccc(F)cc1)c1ccc(F)cc1 (relative stereo)" classification=1

###

assay: Stability in rat liver microsomes assessed as compound remaining measured after 30 mins; assay type: ADME, Microsome; details: read-out: Stability
Endpoint Name: remaining at 0.5 h

mol=O=C(N[C@H]1CC[C@H]2CN(Cc3cccc(C(F)(F)F)c3)C[C@H]21)C(C1CCCCC1)C1CCCCC1 endpoint_name="remaining at 0.5 h" experimental_value="< 5%"

###

target: Voltage-dependent N-type calcium channel subunit alpha-1B (Rattus norvegicus); assay: Inhibition of rat Cav2.2 expressed in HEK293 cells under inactivating depolarizing conditions at holding potential of -80 to -95 mV and stepped to 0 mV once every 5 seconds by whole cell patch clamp assay
Sequence (Q02294 whole entry): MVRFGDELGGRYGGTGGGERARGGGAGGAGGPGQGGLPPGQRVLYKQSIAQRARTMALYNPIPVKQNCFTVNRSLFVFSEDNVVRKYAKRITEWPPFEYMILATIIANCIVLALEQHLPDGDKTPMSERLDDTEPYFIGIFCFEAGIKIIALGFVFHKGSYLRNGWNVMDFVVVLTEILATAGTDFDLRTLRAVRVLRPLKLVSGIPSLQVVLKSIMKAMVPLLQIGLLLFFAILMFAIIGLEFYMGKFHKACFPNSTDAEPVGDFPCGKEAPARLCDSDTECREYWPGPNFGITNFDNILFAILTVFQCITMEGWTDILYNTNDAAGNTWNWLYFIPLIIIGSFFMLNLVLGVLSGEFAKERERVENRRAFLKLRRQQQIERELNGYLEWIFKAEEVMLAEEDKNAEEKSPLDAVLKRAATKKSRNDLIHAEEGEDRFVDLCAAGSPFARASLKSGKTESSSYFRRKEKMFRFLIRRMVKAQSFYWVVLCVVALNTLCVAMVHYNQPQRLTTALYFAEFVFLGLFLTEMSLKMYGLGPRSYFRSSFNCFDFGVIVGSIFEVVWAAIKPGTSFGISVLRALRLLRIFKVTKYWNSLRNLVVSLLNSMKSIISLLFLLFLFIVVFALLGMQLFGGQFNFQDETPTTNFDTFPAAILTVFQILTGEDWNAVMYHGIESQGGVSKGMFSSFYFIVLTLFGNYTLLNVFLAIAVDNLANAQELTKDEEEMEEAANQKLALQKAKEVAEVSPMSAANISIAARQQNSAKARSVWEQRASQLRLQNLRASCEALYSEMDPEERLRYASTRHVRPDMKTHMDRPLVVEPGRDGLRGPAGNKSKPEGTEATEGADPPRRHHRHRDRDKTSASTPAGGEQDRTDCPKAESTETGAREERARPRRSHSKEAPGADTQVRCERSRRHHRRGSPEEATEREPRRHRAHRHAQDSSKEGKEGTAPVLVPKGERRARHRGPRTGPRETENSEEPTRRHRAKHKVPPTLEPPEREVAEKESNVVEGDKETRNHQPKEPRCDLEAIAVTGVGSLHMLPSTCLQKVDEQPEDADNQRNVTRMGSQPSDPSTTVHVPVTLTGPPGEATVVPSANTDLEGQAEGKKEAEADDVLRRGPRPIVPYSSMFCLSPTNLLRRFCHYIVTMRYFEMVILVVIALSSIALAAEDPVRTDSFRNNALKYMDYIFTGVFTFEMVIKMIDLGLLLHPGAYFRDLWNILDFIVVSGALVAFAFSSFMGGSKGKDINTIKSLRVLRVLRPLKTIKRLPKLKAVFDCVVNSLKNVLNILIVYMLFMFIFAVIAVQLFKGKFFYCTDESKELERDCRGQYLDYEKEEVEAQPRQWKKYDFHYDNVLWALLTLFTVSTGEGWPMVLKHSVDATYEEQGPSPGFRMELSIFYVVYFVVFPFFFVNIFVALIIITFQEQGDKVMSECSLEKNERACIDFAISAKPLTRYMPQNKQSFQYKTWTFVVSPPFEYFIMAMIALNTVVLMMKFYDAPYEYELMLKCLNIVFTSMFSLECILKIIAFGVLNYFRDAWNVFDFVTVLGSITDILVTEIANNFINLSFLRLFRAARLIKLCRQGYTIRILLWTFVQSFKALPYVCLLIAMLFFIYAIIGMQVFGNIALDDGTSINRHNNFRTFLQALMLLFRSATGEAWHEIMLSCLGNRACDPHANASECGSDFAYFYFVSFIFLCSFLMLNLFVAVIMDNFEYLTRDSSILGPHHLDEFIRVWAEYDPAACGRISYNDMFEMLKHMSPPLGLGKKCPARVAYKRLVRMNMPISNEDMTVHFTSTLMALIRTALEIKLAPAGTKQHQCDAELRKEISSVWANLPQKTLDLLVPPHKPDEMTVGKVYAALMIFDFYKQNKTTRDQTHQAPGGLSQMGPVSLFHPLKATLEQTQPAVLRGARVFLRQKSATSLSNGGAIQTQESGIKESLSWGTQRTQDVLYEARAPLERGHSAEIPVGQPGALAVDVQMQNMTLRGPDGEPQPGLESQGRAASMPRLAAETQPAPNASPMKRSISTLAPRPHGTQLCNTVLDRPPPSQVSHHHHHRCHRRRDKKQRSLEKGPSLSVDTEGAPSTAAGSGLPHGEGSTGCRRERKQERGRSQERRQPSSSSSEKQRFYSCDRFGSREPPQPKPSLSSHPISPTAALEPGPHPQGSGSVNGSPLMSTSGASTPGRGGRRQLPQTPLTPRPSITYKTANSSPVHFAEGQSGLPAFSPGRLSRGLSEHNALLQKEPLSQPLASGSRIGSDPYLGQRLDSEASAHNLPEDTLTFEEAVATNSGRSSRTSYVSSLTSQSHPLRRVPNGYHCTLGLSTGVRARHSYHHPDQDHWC
Endpoint Name: IC50 (nM)

mol=O=C(N[C@H]1CC[C@H]2CN(Cc3cccc(C(F)(F)F)c3)C[C@H]21)C(C1CCCCC1)C1CCCCC1 experimental_value=41

###

experiment: Therapeutic index, ratio of cardiovascular effect in Sprague-Dawley rat at 10 mg/kg, iv to EC50 for analgesic activity in ip dosed Sprague-Dawley rat osteoarthritis pain model; type: organism-based; set-up: dose 10 mg/kg, route intravenous; settings: in vivo, read-out: TI
Endpoint Name: selectivity ratio

mol=O=C(N[C@H]1CC[C@H]2CN(Cc3cccc(C(F)(F)F)c3)C[C@H]21)C(C1CCCCC1)C1CCCCC1 experimental_value="> 15"

###

experiment: Protein binding in plasma; format: ADME, cell-free; details: read-out: PPB
Endpoint Name: fraction unbound

mol=O=C(N[C@H]1CC[C@H]2CN(Cc3cccc(C(F)(F)F)c3)C[C@H]21)C(C1CCCCC1)C1CCCCC1 endpoint_name="fraction unbound" experimental_value="< 0.01"

###

assay: Aqueous solubility of the compound; assay type: physicochemical; settings: buffer
Endpoint Name: solubility

mol=O=C(N[C@H]1CC[C@H]2CN(Cc3cccc(C(F)(F)F)c3)C[C@H]21)C(C1CCCCC1)C1CCCCC1 experimental_value="< 3 µM"

###

assay: Inhibition of L-type calcium channel in mouse ND7/23 cells by FLIPR based Ca(2+) flux assay; format: cell-based; conditions: read-out: pIC50 (converted)
Endpoint Name: IC50 (µM)

compound="O=C(N[C@H]1CC[C@H]2CN(Cc3cccc(C(F)(F)F)c3)C[C@H]21)C1CCCCC1 (racemic)" endpoint_name=IC50 unit_annotation=µM experimental_value=16.2
compound="O=C(N[C@H]1CC[C@H]2CN(Cc3cccc(C(F)(F)F)c3)C[C@H]21)C1CCCC1 (relative stereo)" endpoint_name=IC50 unit_annotation=µM experimental_value=12.9
compound="CC(C)C(C(=O)N[C@@H]1CC[C@@H]2CN(Cc3ccccc3)C[C@@H]21)c1ccccc1 (mixture of isomers)" endpoint_name=IC50 unit_annotation=µM experimental_value=7.24
compound="O=C(N[C@H]1CC[C@H]2CN(Cc3ccccc3)C[C@H]21)C(c1ccccc1)C1CCCC1 (relative stereo)" endpoint_name=IC50 unit_annotation=µM experimental_value=5.13
compound="CCCC(CCC)C(=O)N[C@H]1CC[C@H]2CN(Cc3cccc(C(F)(F)F)c3)C[C@H]21 (relative stereo)" endpoint_name=IC50 unit_annotation=µM experimental_value=20.4
compound="CC(C)C(C(=O)N[C@H]1CC[C@H]2CN(Cc3cccc(C(F)(F)F)c3)C[C@H]21)c1ccccc1 (mixture of isomers)" endpoint_name=IC50 unit_annotation=µM experimental_value=5.01
compound="O=C(N[C@H]1CC[C@H]2CN(Cc3ccccc3)C[C@H]21)C1(c2ccccc2)CCCCC1 (relative stereo)" endpoint_name=IC50 unit_annotation=µM experimental_value=5.62
compound="O=C(N[C@H]1CC[C@H]2CN(Cc3cccc(C(F)(F)F)c3)C[C@H]21)C(c1ccccc1)c1ccccc1 (racemic)" endpoint_name=IC50 unit_annotation=µM experimental_value=6.31
compound="O=C(N[C@H]1CC[C@H]2CN(Cc3cccc(C(F)(F)F)c3)C[C@H]21)C(c1ccc(F)cc1)c1ccc(F)cc1 (relative stereo)" endpoint_name=IC50 unit_annotation=µM experimental_value=7.08
compound="O=C(N[C@H]1CC[C@H]2CN(Cc3cccc(C(F)(F)F)c3)C[C@H]21)C1CCCCCC1 (racemic)" endpoint_name=IC50 unit_annotation=µM experimental_value=13.8
compound="CCC(CC)C(=O)N[C@H]1CC[C@H]2CN(Cc3cccc(C(F)(F)F)c3)C[C@H]21 (racemic)" endpoint_name=IC50 unit_annotation=µM experimental_value=19.1
compound=Cc1cccc(CN2C[C@@H]3CC[C@H](NC(=O)C(C4CCCCC4)C4CCCCC4)[C@@H]3C2)c1 endpoint_name=IC50 unit_annotation=µM experimental_value=22.4
compound=O=C(N[C@H]1CC[C@H]2CN(Cc3ccc(F)cc3)C[C@H]21)C(C1CCCCC1)C1CCCCC1 endpoint_name=IC50 unit_annotation=µM experimental_value=22.9
compound="O=C(N[C@H]1CC[C@H]2CN(Cc3ccccc3)C[C@H]21)C1(c2ccccc2)CCCC1 (racemic)" endpoint_name=IC50 unit_annotation=µM experimental_value=4.79

###

assay: Inhibition of Voltage-dependent N-type calcium channel in human IMR32 cells by FLIPR based Ca(2+) flux assay; format: cell-based, IMR-32; settings: Homo sapiens, IMR-32; read-out: IC50
// assign TRUE if IC50 falls strictly below 0.9 µM, else FALSE (ties count as FALSE)

molecule=O=C(N[C@H]1CC[C@H]2CN(Cc3cccc(OC(F)(F)F)c3)C[C@H]21)C(C1CCCCC1)C1CCCCC1 classification=TRUE
molecule="CCCC(CCC)C(=O)N[C@H]1CC[C@H]2CN(Cc3cccc(C(F)(F)F)c3)C[C@H]21 (relative stereo)" classification=FALSE
molecule="CC(C)C(C(=O)N[C@@H]1CC[C@@H]2CN(Cc3ccccc3)C[C@@H]21)c1ccccc1 (mixture of isomers)" classification=FALSE
molecule="O=C(N[C@H]1CC[C@H]2CN(Cc3ccccc3)C[C@H]21)C1(c2ccccc2)CCCCC1 (relative stereo)" classification=FALSE
molecule=O=C(N[C@H]1CC[C@H]2CN(Cc3ccccc3C(F)(F)F)C[C@H]21)C(C1CCCCC1)C1CCCCC1 classification=FALSE
molecule=O=C(N[C@@H]1CC[C@@H]2CN(Cc3cccc(C(F)(F)F)c3)C[C@@H]21)C(C1CCCCC1)C1CCCCC1 classification=FALSE
molecule="CC(C)C(C(=O)N[C@H]1CC[C@H]2CN(Cc3cccc(C(F)(F)F)c3)C[C@H]21)c1ccccc1 (mixture of isomers)" classification=TRUE

###

test: Inhibition of Voltage-dependent N-type calcium channel in human IMR32 cells by FLIPR based Ca(2+) flux assay; type: cell-based, IMR-32; conditions: Homo sapiens, IMR-32; read-out: IC50
In this section, each of the compounds is paired with its reported IC50.
Endpoint Name: IC50 (nM)

compound="O=C(N[C@@H]1CC[C@@H]2CN(Cc3ccccc3)C[C@@H]21)C(c1ccccc1)C1CCCCC1 (mixture of isomers)" experimental_value=1060
compound="O=C(N[C@H]1CC[C@H]2CN(Cc3cccc(C(F)(F)F)c3)C[C@H]21)C(c1ccccc1)c1ccccc1 (racemic)" experimental_value=670
compound="O=C(N[C@H]1CC[C@H]2CN(Cc3cccc(C(F)(F)F)c3)C[C@H]21)C1CCCCC1 (racemic)" experimental_value=1260
compound=O=C(N[C@H]1CC[C@H]2CN(Cc3cccc(F)c3)C[C@H]21)C(C1CCCCC1)C1CCCCC1 experimental_value=990
compound=O=C(N[C@H]1CC[C@H]2CN(Cc3ccc(F)cc3)C[C@H]21)C(C1CCCCC1)C1CCCCC1 experimental_value=740
compound=Cc1cccc(CN2C[C@@H]3CC[C@H](NC(=O)C(C4CCCCC4)C4CCCCC4)[C@@H]3C2)c1 experimental_value=860
compound="O=C(N[C@H]1CC[C@H]2CN(Cc3ccccc3)C[C@H]21)C(c1ccccc1)C1CCCC1 (relative stereo)" experimental_value=920
compound=O=C(N[C@H]1CC[C@H]2CN(Cc3ccccc3F)C[C@H]21)C(C1CCCCC1)C1CCCCC1 experimental_value=1120
